Values were extracted from the supplement of paper PMC10567573.

B1: EFHC1 (parent)
chain: NIYYYLEDDSMSVIEPVVENSGIL

- Variants of: B1
- Test: protein stability index of a GFP-peptide fusion (GPS, HEK-293T) (PSI 1-6); higher = more stable;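 also: lentivirally expressed fusions sorted by FACS into six bins by GFP to DsRed ratio, PSI derived from sequencing read proportions per bin multiplied by bin number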
- Condition Description: c terminus: a fixed tail appended
Measure Name: protein stability index
Give the value as a plain number.

Using known records, supply protein stability index for NIYYYLEDDSMSVIEPVHENSGIL [V18H]
2.11

Using known records, supply protein stability index for NIYYYLEDDSMVVIEPVVENSGIL [S12V]
1.86

Using known records, supply protein stability index for MIYYYLEDDSMSVIEPVVENSGIL [N1M]
2.34

Using known records, supply protein stability index for NIYYYLEDDSMSTIEPVVENSGIL [V13T]
2.21

Using known records, supply protein stability index for NIYYYMEDDSMSVIEPVVENSGIL [L6M]
2.25

Using known records, supply protein stability index for NIYRYLEDDSMSVIEPVVENSGIL [Y4R]
2.51

Using known records, supply protein stability index for NIYYHLEDDSMSVIEPVVENSGIL [Y5H]
2.69

Using known records, supply protein stability index for NIYYYLEDDMMSVIEPVVENSGIL [S10M]
2.13

Using known records, supply protein stability index for NIYYYLEDDSMSVIEPVVEASGIL [N20A]
1.69

Using known records, supply protein stability index for NIYYYLEDDSMSVMEPVVENSGIL [I14M]
2.09

Using known records, supply protein stability index for NIYYYLEDDSMSNIEPVVENSGIL [V13N]
2.82

Using known records, supply protein stability index for NIYYYLEDDSMSVIEPHVENSGIL [V17H]
2.15

Using known records, supply protein stability index for NIYYYLEDDSMSVIEPVRENSGIL [V18R]
1.92

Using known records, supply protein stability index for NIYYYLEDDSMSVIETVVENSGIL [P16T]
2.94

Using known records, supply protein stability index for NIYYYLEDDSMSAIEPVVENSGIL [V13A]
1.72

Using known records, supply protein stability index for NIYYYLLDDSMSVIEPVVENSGIL [E7L]
2.33

Using known records, supply protein stability index for NIYYYLEDDSMSVIEPVVENSGPL [I23P]
2.42

Using known records, supply protein stability index for NIGYYLEDDSMSVIEPVVENSGIL [Y3G]
3.43

Using known records, supply protein stability index for NIYYYLEDDSMSVIEPVVENNGIL [S21N]
2.33

Using known records, supply protein stability index for RIYYYLEDDSMSVIEPVVENSGIL [N1R]
1.32

Using known records, supply protein stability index for NIYYYLEDDSMSVIEPVVENSGID [L24D]
2.48

Using known records, supply protein stability index for NIYDYLEDDSMSVIEPVVENSGIL [Y4D]
2.74

Using known records, supply protein stability index for NIYYYLEDDSHSVIEPVVENSGIL [M11H]
2.56

Using known records, supply protein stability index for NIYGYLEDDSMSVIEPVVENSGIL [Y4G]
3.49

Using known records, supply protein stability index for NIYYYLEDDRMSVIEPVVENSGIL [S10R]
3.15

Using known records, supply protein stability index for NIYYDLEDDSMSVIEPVVENSGIL [Y5D]
3.64

Using known records, supply protein stability index for NIYYYLEDDSMSVIEPTVENSGIL [V17T]
2.32

Using known records, supply protein stability index for NIYYYLEDDSMSVIEPVVENLGIL [S21L]
2.03

Using known records, supply protein stability index for NIYYYLEDDSMSVIEDVVENSGIL [P16D]
2.2

Using known records, supply protein stability index for NIYYYLEDDSMSVIEPVVENSAIL [G22A]
2.19

Using known records, supply protein stability index for NIYYYLEDDSMSVYEPVVENSGIL [I14Y]
1.93

Using known records, supply protein stability index for NIYYYLEDDSMSVIQPVVENSGIL [E15Q]
1.61

Using known records, supply protein stability index for NIYYYLEDDSMSVIEPVVENSGIA [L24A]
2.08

Using known records, supply protein stability index for NIYYYLEDDSMSVIEPVVENSGDL [I23D]
2.81

Using known records, supply protein stability index for NIYYYLEDDSMSMIEPVVENSGIL [V13M]
2.23

Using known records, supply protein stability index for NIQYYLEDDSMSVIEPVVENSGIL [Y3Q]
3.12

Using known records, supply protein stability index for NIYYYLEDDSMSVIEPVVQNSGIL [E19Q]
2.16

Using known records, supply protein stability index for GIYYYLEDDSMSVIEPVVENSGIL [N1G]
2.08

Using known records, supply protein stability index for NIYYYLEDDSYSVIEPVVENSGIL [M11Y]
2.17

Using known records, supply protein stability index for NIYYYLEDDSMSVIEPVVENRGIL [S21R]
1.74

Using known records, supply protein stability index for NIYYYLEDDSESVIEPVVENSGIL [M11E]
2.68

Using known records, supply protein stability index for NIYYYLEDDSMSVIEPVAENSGIL [V18A]
2.19

Using known records, supply protein stability index for NIYYYLEDDSMSVIEPVVENSGNL [I23N]
2.71

Using known records, supply protein stability index for NIYYYLEDDSMSVIEPVVENSSIL [G22S]
1.7

Using known records, supply protein stability index for NIYYYLEDDSMSVIEPVVENSGWL [I23W]
2.47

Using known records, supply protein stability index for NDYYYLEDDSMSVIEPVVENSGIL [I2D]
2.62

Using known records, supply protein stability index for NIYSYLEDDSMSVIEPVVENSGIL [Y4S]
3.48

Using known records, supply protein stability index for NIYYYLEDDSMSVIEPVVENSGRL [I23R]
1.99

Using known records, supply protein stability index for NIYYYLEDDSMSVEEPVVENSGIL [I14E]
3.1

Using known records, supply protein stability index for NIYYYLEDDSKSVIEPVVENSGIL [M11K]
3.24

Using known records, supply protein stability index for NIYQYLEDDSMSVIEPVVENSGIL [Y4Q]
2.39

Using known records, supply protein stability index for NIYYYHEDDSMSVIEPVVENSGIL [L6H]
3.03

Using known records, supply protein stability index for NIYYYLEDDSMSVAEPVVENSGIL [I14A]
2.42

Using known records, supply protein stability index for NIYYYLEDDSMSVIEPVVENSMIL [G22M]
1.46

Using known records, supply protein stability index for NIYYYLEDDSNSVIEPVVENSGIL [M11N]
3.06

Using known records, supply protein stability index for NIYYYYEDDSMSVIEPVVENSGIL [L6Y]
2.22

Using known records, supply protein stability index for NIYYYLEDDSMSVIEPVVENSHIL [G22H]
1.71

Using known records, supply protein stability index for NIPYYLEDDSMSVIEPVVENSGIL [Y3P]
3.39

Using known records, supply protein stability index for NIYYYLEDDSMSVIEPVVENSGCL [I23C]
2.12

Using known records, supply protein stability index for NIYYYFEDDSMSVIEPVVENSGIL [L6F]
1.72

Using known records, supply protein stability index for NIYYYLEDDSMSVIEVVVENSGIL [P16V]
2.86

Using known records, supply protein stability index for NIYYYLEDDSMSVIEPVIENSGIL [V18I]
2.23

Using known records, supply protein stability index for NIYYYLNDDSMSVIEPVVENSGIL [E7N]
2.72

Using known records, supply protein stability index for NIYYYLEDDSMSVIEPVVENEGIL [S21E]
2.31

Using known records, supply protein stability index for NIYYYLEDDSMSVIEPVVENYGIL [S21Y]
1.39

Using known records, supply protein stability index for NIYYYLEDDSCSVIEPVVENSGIL [M11C]
2.19

Using known records, supply protein stability index for NIYYYLDDDSMSVIEPVVENSGIL [E7D]
1.89

Using known records, supply protein stability index for NIYYYLEPDSMSVIEPVVENSGIL [D8P]
2.23

Using known records, supply protein stability index for NIYYGLEDDSMSVIEPVVENSGIL [Y5G]
3.27

Using known records, supply protein stability index for NIYYYLEDDSMSVIEPVVKNSGIL [E19K]
2.23

Using known records, supply protein stability index for NIYYYLEDDSMSSIEPVVENSGIL [V13S]
2.17

Using known records, supply protein stability index for NIYYYLEGDSMSVIEPVVENSGIL [D8G]
2.47

Using known records, supply protein stability index for NIYYYLEDDSMSVIEPVVENSGIS [L24S]
2.58

Using known records, supply protein stability index for WIYYYLEDDSMSVIEPVVENSGIL [N1W]
1.61

Using known records, supply protein stability index for NIYYYNEDDSMSVIEPVVENSGIL [L6N]
3.57

Using known records, supply protein stability index for NIYYYLEDDSMSVLEPVVENSGIL [I14L]
1.95

Using known records, supply protein stability index for NIYYYLEDDSMSVIKPVVENSGIL [E15K]
2.34

Using known records, supply protein stability index for NIYYYLEDDSMSVIEPVVENMGIL [S21M]
1.78

Using known records, supply protein stability index for NIYYYLEDDSMSVQEPVVENSGIL [I14Q]
1.85

Using known records, supply protein stability index for NIYYYLEDDSMSVIEPVVELSGIL [N20L]
3.52

Using known records, supply protein stability index for NIHYYLEDDSMSVIEPVVENSGIL [Y3H]
2.81

Using known records, supply protein stability index for FIYYYLEDDSMSVIEPVVENSGIL [N1F]
2.88

Using known records, supply protein stability index for NIYYYLEDDSMSVIEPQVENSGIL [V17Q]
2.41

Using known records, supply protein stability index for NIYYALEDDSMSVIEPVVENSGIL [Y5A]
3.1

Using known records, supply protein stability index for NIYHYLEDDSMSVIEPVVENSGIL [Y4H]
2.33

Using known records, supply protein stability index for NIYYYLEDDSMSVIEPVVCNSGIL [E19C]
1.39

Using known records, supply protein stability index for NIYYYLEDDEMSVIEPVVENSGIL [S10E]
2.57

Using known records, supply protein stability index for NIYYYLEDDSMSVIEPVVENSGFL [I23F]
1.2

Using known records, supply protein stability index for NIYYYLEDDSMSVIEPVSENSGIL [V18S]
2.67

Using known records, supply protein stability index for NIYYYLEDDSQSVIEPVVENSGIL [M11Q]
2.55

Using known records, supply protein stability index for NIYYYLEDDSMRVIEPVVENSGIL [S12R]
1.73
